# key: entry, value: melting point
measure: melting point

> print(dat)
                                    molecule        measure        reading
 1  O=C(CC(C(=O)O)c1ccc(Cl)cc1)c1ccc(Cl)cc1 (stereo not shown) [Ih-27]  melting point  154 to 156 °C
 2  COc1ccc(C(=O)CC(Sc2ccc(F)cc2)C(=O)O)cc1 (stereo not shown) [Ih-18]  melting point  108 to 110 °C
 3  COc1ccc(SC(CC(=O)c2ccccc2)C(=O)O)cc1 (stereo not shown) [Ih-6]  melting point  116 to 118 °C
 4  COc1ccc(C(=O)CC(SC2CCCCC2)C(=O)O)cc1 (stereo not shown) [Ih-23]  melting point  120 to 122 °C
 5  COc1ccc(C(=O)CC(SCc2ccccc2)C(=O)O)cc1 (stereo not shown) [Ih-24]  melting point  105 to 109 °C
 6  COc1ccc(C(=O)CC(Sc2ccc(C)cc2)C(=O)O)cc1 (stereo not shown) [Ih-20]  melting point  137 to 141 °C
 7  COc1ccc(SC(CC(=O)c2ccc(Cl)cc2)C(=O)O)cc1 (stereo not shown) [Ih-29]  melting point  117 to 119 °C
 8  O=C(CC(Sc1ccc(Cl)cc1)C(=O)O)c1ccccc1 (stereo not shown) [Ih-4]  melting point  140 to 142 °C
 9  O=C(CC(Sc1ccccc1)C(=O)O)c1ccccc1 (stereo not shown) [Ih-2, 2-phenylthio-4-phenyl-4-oxobutanoic acid]  melting point  132 to 135 °C
10  O=C(CC(SC1CCCCC1)C(=O)O)c1ccccc1 (stereo not shown) [Ih-7]  melting point         117 °C

###

Examples of compounds with documented melting point follow.
measure: melting point

> print(dat)
                                   compound        measure        reading
1  O=C(CC(Sc1ccccc1)C(=O)O)c1ccc(Cl)cc1 (centres unmarked)  melting point  166 to 169 °C
2  COc1ccc(SC(CC(=O)c2ccc(OC)cc2)C(=O)O)cc1 (centres unmarked)  melting point  137 to 140 °C
3  O=C(CC(SCc1ccccc1)C(=O)O)c1ccccc1 (centres unmarked)  melting point  143 to 146 °C
4  COc1ccc(C(=O)CC(Sc2ccc(Cl)cc2)C(=O)O)cc1 (centres unmarked)  melting point  120 to 121 °C
5  COc1ccc(C(=O)CC(Sc2ccccc2)C(=O)O)cc1 (centres unmarked)  melting point  121 to 125 °C
6  Cc1ccc(SC(CC(=O)c2ccc(Cl)cc2)C(=O)O)cc1 (centres unmarked)  melting point  151 to 153 °C
7  O=C(CC(Sc1ccc(F)cc1)C(=O)O)c1ccc(Cl)cc1 (centres unmarked)  melting point  140 to 141 °C
8  Cc1ccc(SC(CC(=O)c2ccccc2)C(=O)O)cc1 (centres unmarked)  melting point  132 to 134 °C

###

# measurement.target: kynurenine 3-hydroxylase (Rattus norvegicus, UniProt O88867)
# Sequence (O88867 whole entry): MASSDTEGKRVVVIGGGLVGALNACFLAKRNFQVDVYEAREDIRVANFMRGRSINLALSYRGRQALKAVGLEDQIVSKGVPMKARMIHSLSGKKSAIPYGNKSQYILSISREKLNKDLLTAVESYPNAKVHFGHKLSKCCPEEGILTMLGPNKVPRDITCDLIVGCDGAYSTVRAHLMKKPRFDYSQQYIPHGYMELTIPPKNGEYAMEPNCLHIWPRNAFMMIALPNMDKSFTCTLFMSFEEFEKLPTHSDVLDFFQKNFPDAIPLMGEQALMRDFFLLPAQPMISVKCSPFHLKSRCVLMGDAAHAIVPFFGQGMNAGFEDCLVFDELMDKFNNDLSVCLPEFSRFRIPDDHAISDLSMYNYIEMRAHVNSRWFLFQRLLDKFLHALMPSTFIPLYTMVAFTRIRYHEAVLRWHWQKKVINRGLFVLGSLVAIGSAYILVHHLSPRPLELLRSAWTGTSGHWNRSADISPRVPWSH
pIC50: −log10 of the molar value.
measure: pIC50

> print(dat)
                               query.smiles                        measurement.target  measure  reading
1  COc1ccc(S(=O)(=O)Nc2nc(-c3cccc([N+](=O)[O-])c3)cs2)cc1OC  kynurenine 3-hydroxylase (Rattus norvegicus, UniProt O88867)    pIC50     5.00

###

# System: perfused isolated pancreases from N0 STZ diabetic rats
# assay.overview: Secretion of insulin and glucagon in perfused isolated pancreases from N0 STZ diabetic rats
# Type: cell-based
# test.context: perfused diabetic rat pancreas; absence of glucose, then 16.5 mM glucose; glucose-dependent
measure: glucagon secretion (in words)

> print(dat)
                                   molecule                        measurement.target      reading
1  O=C(C[C@@H](Cc1ccccc1)C(=O)O)c1ccc(F)cc1 [Compound i]  perfused isolated pancreases from N0 STZ diabetic rats  stimulation
2  COc1ccc(S(=O)(=O)Nc2nc(-c3cccc([N+](=O)[O-])c3)cs2)cc1OC [Compound k]  perfused isolated pancreases from N0 STZ diabetic rats  stimulation
